Source of measurements: ChEMBL document CHEMBL1146341

Experiment: Drug level in baboon plasma assessed as unmetabolized fractions after 4 mins
Format: ADME, cell-free
Conditions: papio hamadryas, read-out: Activity
recorded metric: remaining at 4 min (%)
Numbers only; they are read as %.

Request: Quick one: remaining at 4 min of Cc1ccc(-c2cc(C(F)(F)[18F])nn2-c2ccc(S(N)(=O)=O)cc2)cc1 ?
Result: 84.9

* * *

Assay: Drug level in baboon plasma assessed as unmetabolized fractions after 60 mins
Format: ADME, cell-free
Conditions: papio hamadryas, read-out: Activity
recorded metric: remaining at 1 h (%)
Write the value in % as a bare number.

Request: Would you mind telling me what remaining at 1 h value was observed for Cc1ccc(-c2cc(C(F)(F)[18F])nn2-c2ccc(S(N)(=O)=O)cc2)cc1 ?
Result: 17
